system: MCF10A; experiment: 5+ nucleoli phenotype percent effect (relative to siNT 0% and siKIF11 100%); higher = more cells with five or more nucleoli; settings: 20 nM; 72 h
reportedProperty: 5+ nucleoli phenotype percent effect (%)
# value in %; strip the unit string

UUGGAAGCUUGGACCAACUAGCUG [hsa-miR-6079] | -27.8
AGGCAUGGGAGGUCAGGUGA [hsa-miR-3622b-5p] | -30.6
UGGGAGAGCAGGGUAUUGUGGA [hsa-miR-6731-5p] | -22.2
UGAGUUGGCCAUCUGAGUGAG [hsa-miR-571] | 5.09
CCACCUCCCCUGCAAACGUCCA [hsa-miR-1306-5p] | 33
UCUGUGAUAGAGAUUCUUUGCU [hsa-miR-4679] | 8.51
UUUUUCAUUAUUGCUCCUGACC [hsa-miR-335-3p] | 26.8
CACUCAGCCUUGAGGGCACUUUC [hsa-miR-512-5p] | -15.2

Field request: 5+ nucleoli phenotype percent effect | item: CUUCCGGUCUGUGAGCCCCGUC [hsa-miR-4664-3p]
-1.01

Given the entry GGAGACUGAUGAGUUCCCGGGA [hsa-miR-873-3p] , report its measured 5+ nucleoli phenotype percent effect.
-5.61

Returns the measured 5+ nucleoli phenotype percent effect for the input sequence. Input: CCUUCACUGUGACUCUGCUGCAG [hsa-miR-6837-3p]
50.7

What does the record list as 5+ nucleoli phenotype percent effect for AGCUGUCUGUGUUUUCCUUCUCAG [hsa-miR-6876-3p] ?
-19.1

Endpoint output: 5+ nucleoli phenotype percent effect of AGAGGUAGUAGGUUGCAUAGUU [hsa-let-7d-5p] . Value?
30.8

Consider the sequence shown here: UGAAACUGGAGCGCCUGGAGGA [hsa-miR-4738-3p] What is its recorded 5+ nucleoli phenotype percent effect?
-20.8

Given the entry UCUGAAUUGUAAGAGUUGUUA [hsa-miR-4680-3p] , report its measured 5+ nucleoli phenotype percent effect.
14.3

Can you look up the measured 5+ nucleoli phenotype percent effect of UUUCCCUUCAGAGCCUGGCUUU [hsa-miR-4755-5p] for me?
1.53

Name the reported 5+ nucleoli phenotype percent effect value associated with the sequence UGAGUGCCGGUGCCUGCCCUG [hsa-miR-1909-5p]
-15.5
